Sourced from PubChem BioAssay AID1159580

- assayText: chemical genetic growth profiling, strain panel (AID 1159580);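 further: tested at 20 µM; growth read once vehicle control cultures reached saturation at 30 °C; 1 = growth at the plate median or of vehicle wells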
- statedConditions: S. cerevisiae deletion strains, growth OD, locus YLR262C, strain YPT6 (second series)
The whole screen tested about 5,500 compounds, of which about 2,000 (36%) were called active. Inconclusive results (about 18%) are left out. No stated cut-off is given here; in the data, active means normalized growth mostly below about 0.91 (no sharp cut-off); inconclusive means no clear call, values can overlap the other calls; inactive means mostly above about 0.92. This is one part of the list.
Please reply with one of these outcomes: True = active, False = inactive

Take a look at these entries with their results.
# compound, assignedClass
measured = [
    ("COc1ccc2c(c1)OC/C(=C/c1ccc(OC)c(OC)c1)C2=O", "True"),
    ("COc1ccc(-c2coc3cc(O)ccc3c2=O)cc1", "False"),
    ("CC[C@@]1(O)C[C@H](O[C@H]2C[C@H](N(C)C)[C@H](O)[C@H](C)O2)c2c(cc3c(c2O)C(=O)c2c(O)ccc(O)c2C3=O)[C@H]1C(=O)OC", "True"),
    ("CC[C@@]1(O)C[C@H](O)c2c(cc3c(c2O)C(=O)c2c(O)ccc(O)c2C3=O)[C@H]1C(=O)OC", "True"),
]

Query: For `COc1ccc(-c2coc3cc(O)ccc3c2=O)c(OC)c1` , which call appears in the assay record?
Result: False

Query: Entry `COc1ccc(CN(CCN(C)C)c2ccccn2)cc1` : call = ?
Result: False

Query: Record request — test call for `COc1ccc(-c2coc3cc(O)ccc3c2=O)c(O)c1O`
Result: True

Query: Status in this test for `CN(C)CCN(Cc1cccs1)c1ccccn1` ?
Result: False

Query: Check the results log: what was the call for COc1cc([C@@H]2c3cc4c(cc3C(OC3O[C@@H]5COC(C)O[C@H]5[C@H](O)[C@H]3O)C3COC(=O)[C@@H]32)OCO4)cc(OC)c1O (stereo not given in full) ?
Result: False

Query: Assay result, entry `CN(C)CCN(Cc1ccccc1)c1ccccn1` — outcome?
Result: False

====

- assayText: chemical genetic growth profiling, strain panel (AID 1159580)
- statedConditions: S. cerevisiae deletion strains, growth OD, locus YML094W, strain GIM5, active compounds read low
Hit rate of the full screen: of about 5,500 compounds, about 2,000 (36%) were called active. Not shown: some 18% with an inconclusive outcome. The list shows a part of the results.
Mark 1 for normalized growth under 1, 0 if at or over.

Use these answered entries as a reference point.
# molSmiles, assignedClass
measured = [
    ("CSc1nc2ccccc2[nH]1", 1),
    ("COc1ccc(/C=C2\\CC/C(=C\\c3ccc(OC)c(OC)c3)C2=O)cc1OC", 0),
    ("CN(C)C=Nc1ncccc1OCc1ccc(Cl)c(Cl)c1", 1),
]

Query: Below 1 on normalized growth? Entry `CCOC(=O)N=Nc1c(O)[nH]c2ccc(F)cc12`
Result: 0

Query: Lab log: compare recorded normalized growth with 1; is it strictly lower for `O=C(CSc1ccc(Cl)cc1)Nc1ccc(F)cc1` ?
Result: 1

Query: A record lists `Cc1nc(N)ncc1Sc1ccccc1` . Is its normalized growth below 1?
Result: 1

Query: Is 1 strictly greater than the compound's reported normalized growth? compound: `CCOC(=O)CNc1ccc(F)cc1`
Result: 0

Query: Dear reviewer, please state whether `O=[N+]([O-])c1ccc(N2CCCCC2)nc1N1CCCCC1` has normalized growth strictly beneath 1.
Result: 1

====

Entries annotated with measured normalized growth
- assayText: chemical genetic growth profiling, strain panel (AID 1159580)
- statedConditions: S. cerevisiae deletion strains, growth OD, locus YNL322C, strain KRE1 (second series), active compounds read low
In all, about 5,500 compounds went through this assay and about 2,000 (36%) were called active. About 18% were inconclusive and are not listed. The list shows a part of the results.
Please give only the number in your answer, with no unit.

# count of solved cases: 2
# molecule, normalized growth
data = [
    ("CNC(=O)O/N=C(\\C)SC", 0.995),
    ("CC[C@@H](C(=O)C(C)[C@@H](O)[C@H](C)CCc1ccc(C)c(O)c1C(=O)O)C1OC(CC)(C2CC[C@](O)(CC)[C@H](C)O2)C[C@@H]1C (stereo partly drawn)", 1.08),
]

Query: Data request, read-out normalized growth, for `COc1ccc(CN(CCN(C)C)c2ccccn2)cc1`
Result: 1.04

====

- assayText: chemical genetic growth profiling, strain panel (AID 1159580);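 further: tested at 20 µM; growth read once vehicle control cultures reached saturation at 30 °C; 1 = growth at the plate median or of vehicle wells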
- statedConditions: S. cerevisiae deletion strains, growth OD, locus YHR129C, strain ARP1
Among all 5,500 compounds or so, about 2,000 (36%) were called active. About 18% were inconclusive and are not listed. No stated cut-off is given here; in the data, active means normalized growth mostly below about 0.91 (no sharp cut-off); inconclusive means no clear call, values can overlap the other calls; inactive means mostly above about 0.92. The list shows a part of the results.
Output constraint: value belongs to TRUE for active, FALSE for inactive

Query: Test call, this compound: `O=C(O)CCCc1ccccc1`
Result: FALSE

Query: Assay result, entry C=C1C2CC[C@@]3(C)[C@H](c4ccoc4)OC(=O)C[C@]13O[C@H]1CC(=O)C(C)(C)[C@H](C(OC(C)=O)C(=O)OC)[C@@]21C (stereo not given in full) — outcome?
Result: FALSE

Query: What is the recorded call for this compound in the test? CCCCCCC(C)OC(=O)COc1cc(Cl)c(Cl)cc1Cl (stereo not given)
Result: FALSE

Query: I'd appreciate the recorded outcome for `O=C(O)CCCc1ccc(N(CCCl)CCCl)cc1` from this test.
Result: FALSE

Query: How was `O=C1C(Cl)=C(Cl)C(=O)C(Cl)=C1Cl` classified in this test?
Result: TRUE

Query: Call for entry C[C@]12CCC(=O)C=C1C=CC1C2CC[C@@]2(C)C1CC[C@@]21CCC(=O)O1 (stereo not given in full) :
Result: FALSE

====

- assayText: chemical genetic growth profiling, strain panel (AID 1159580);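 further: tested at 20 µM; growth read once vehicle control cultures reached saturation at 30 °C; 1 = growth at the plate median or of vehicle wells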
- statedConditions: S. cerevisiae deletion strains, growth OD, locus YDR150W, strain NUM1
Hit rate of the full screen: of about 5,500 compounds, about 2,000 (36%) were called active. Another 18% or so got no clear call; they are omitted. No stated cut-off is given here; in the data, active means normalized growth mostly below about 0.91 (no sharp cut-off); inconclusive means no clear call, values can overlap the other calls; inactive means mostly above about 0.92. Some of the results follow.
Pick one: active, inactive

# compound, assignedClass
records = [
    ("N[C@@H](Cc1ccc(N(CCCl)CCCl)cc1)C(=O)O", "inactive"),
    ("c1ccc2c(c1)CCCC2C1=NCCN1 (stereo unspecified)", "inactive"),
    ("CN1CC[C@@]2(C)c3cc(O)ccc3N(C)C12 (stereo partly specified)", "inactive"),
    ("CSc1nc(N)n(-c2ccccc2)n1", "inactive"),
    ("O=C1CCC(N2C(=O)c3ccccc3C2=O)C(=O)N1 (stereo unspecified)", "inactive"),
    ("COC(=O)CCCCCCCC(=O)Nc1ccc(Cl)cc1", "inactive"),
    ("CC(C)(C)NCC(O)COc1cccc2[nH]c(=O)[nH]c12 (stereo unspecified)", "inactive"),
    ("O=C(NNC(=S)Nc1cccc(Cl)c1)C1CC1", "inactive"),
]

Query: Just curious, what result did `Clc1ccc(C(c2ccc(Cl)cc2)C(Cl)(Cl)Cl)cc1` get here?
Result: inactive

Query: Per the records of this test, what outcome belongs to `COc1ccc(C(c2ccc(OC)cc2)C(Cl)(Cl)Cl)cc1` ?
Result: inactive

Query: Could you kindly confirm the outcome this assay logged for O=C(CC1NCCN(Cc2ccccc2)C1=O)Nc1ccc(Cl)cc1 (stereo unspecified) ?
Result: inactive

Query: Answer briefly: the call reported for `Nc1cc(=O)[nH]c(N)n1` in this assay.
Result: inactive

Query: Assay outcome for `NC(=O)c1ccc[n+]([C@@H]2O[C@H](COP(=O)([O-])OP(=O)(O)OC[C@H]3O[C@@H](n4cnc5c(N)ncnc54)[C@H](OP(=O)(O)O)[C@@H]3O)[C@@H](O)[C@H]2O)c1` : what was it?
Result: inactive

Query: Name the outcome recorded for `C/C(=C\C(=O)Nc1ccc(F)cc1)Nc1ccc(F)cc1` in the assay.
Result: inactive

Query: I'd appreciate the recorded outcome for `O=C(O)CSCc1ccccc1` from this test.
Result: inactive

Query: Tell me the assay call for `COc1ccc(C(=O)CC(=O)O)c2c1C=CC(C)(C)O2` please.
Result: inactive

Query: For COc1ccc(C(CN(C)C)C2(O)CCCCC2)cc1 (stereo unspecified) , which call appears in the assay record?
Result: inactive

====

- assayText: chemical genetic growth profiling, strain panel (AID 1159580);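 further: tested at 20 µM; growth read once vehicle control cultures reached saturation at 30 °C; 1 = growth at the plate median or of vehicle wells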
- statedConditions: S. cerevisiae deletion strains, growth OD, locus YMR058W, strain fet3, active compounds read low
The whole screen tested about 5,500 compounds, of which about 2,000 (36%) were called active. Roughly 18% stayed inconclusive and do not appear here. Some of the results follow.
// reported normalized growth per item
// response body must contain only the number

Known normalized growth results, listed for orientation:
# molecule, normalized growth
measured = [
    ("CC[C@@]1(O)C[C@H](O[C@H]2C[C@H](N(C)C)[C@H](O)[C@H](C)O2)c2c(cc3c(c2O)C(=O)c2c(O)ccc(O)c2C3=O)[C@H]1C(=O)OC", 0.416),
    ("CNCCC(Oc1ccc(C(F)(F)F)cc1)c1ccccc1 (stereo unspecified)", 0.99),
    ("O=C(c1ccc(OCCN2CCCCC2)cc1)c1c(-c2ccc(O)cc2)sc2cc(O)ccc12", 1.01),
    ("Cc1[nH]c2ccccc2c1CN(C)C", 1.02),
    ("CCCc1cc(C(N)=S)ccn1", 0.981),
]

Please examine the following record next.
Query: // normalized growth lookup, key: `CC[C@@]1(O)C[C@H](O)c2c(cc3c(c2O)C(=O)c2c(O)ccc(O)c2C3=O)[C@H]1C(=O)OC`
Result: 0.815
